tested on: P. berghei; assay: Prophylactic activity against P. berghei in vivo (mice dosed before infection); conditions: single 100 mg/kg oral dose 48 h prior to infection; parasitemia day 3 post-infection
Activity (%) 48 h prior to infection (100 mg/kg) values, listed per item
Observation Type: Activity (%) 48 h prior to infection (100 mg/kg)

1) C[C@H]1[C@H](OC(=O)CCC(=O)O)O[C@@H]2O[C@@]3(C)CC[C@H]4[C@H](C)CC[C@@H]1[C@@]24OO3 [AS, artesunate, reference compound] : 0
2) CS(=O)(=O)O.c1cc([C@H]2CC[C@]3(CC2)OOC2(O3)C3CC4CC(C3)CC2C4)ccc1OCCCN1CCOCC1 (some centres unmarked) : 99.7
3) CC(C)(O)CNCCCOc1ccc([C@H]2CC[C@]3(CC2)OOC2(O3)C3CC4CC(C3)CC2C4)cc1.Cc1ccc(S(=O)(=O)O)cc1 (some centres unmarked) : 99.5
4) O[C@H]1CC[C@@H](C2CCC3(CC2)OOC2(O3)C3CC4CC(C3)CC2C4)CC1 (some centres unmarked) : 99.8
5) OC(c1cc(C(F)(F)F)nc2c(C(F)(F)F)cccc12)C1CCCCN1 (centres unmarked) [MQ, mefloquine, reference compound] : 99.9
6) OC1CCN(CCOc2ccc([C@H]3CC[C@]4(CC3)OOC3(O4)C4CC5CC(C4)CC3C5)cc2)CC1 (some centres unmarked) : 99.7
7) CC(C)(CN)Oc1ccc(C2CCC3(CC2)OOC2(O3)C3CC4CC(C3)CC2C4)cc1.CS(=O)(=O)O (centres unmarked) : 99.7
8) CS(=O)(=O)O.NCCCCCOc1ccc(C2CCC3(CC2)OOC2(O3)C3CC4CC(C3)CC2C4)cc1 (centres unmarked) : 99.8
9) CS(=O)(=O)O.c1cc([C@H]2CC[C@]3(CC2)OOC2(O3)C3CC4CC(C3)CC2C4)ccc1OC1CCNCC1 (some centres unmarked) : 99.8
10) NCCOc1ccc([C@H]2CC[C@]3(CC2)OO[C@]2(O3)C3CC4CC(C3)CC2C4)cc1 [OZ323, reference compound] : 99.5
11) CS(=O)(=O)O.c1cc(C2CCC3(CC2)OOC2(O3)C3CC4CC(C3)CC2C4)ccc1OCCN1CCSCC1 (centres unmarked) : 99.6
12) CS(=O)(=O)O.NC1CCC(Oc2ccc(C3CCC4(CC3)OOC3(O4)C4CC5CC(C4)CC3C5)cc2)CC1 (centres unmarked) [OZ493] : 99
13) CS(=O)(=O)O.c1cc(C2CCC3(CC2)OOC2(O3)C3CC4CC(C3)CC2C4)ccc1OCCN1CCOCC1 (centres unmarked) : 99.6
14) CC(C)(N)CNC(=O)C[C@H]1CC[C@]2(CC1)OO[C@]1(O2)C2CC3CC(C2)CC1C3 [OZ277, reference compound] : 0
